Cited source: PubChem BioAssay (Tox21)

assay: qHTS assay for small molecule agonists of the p53 signaling pathway (AID 651631); conditions: HCT-116 p53RE-bla reporter, beta-lactamase FRET ratio, 16 h; series mostly up to 73.3 µM; further: nearly all actives have a fitted effect of over 15% in size
Results filed as inconclusive are left out. The source made the active and inactive calls. The call rests on the fitted dose curve.
Outcome codes: 1 (active), -1 (inactive)

# structure, label value
measured = [
    ("C=C1c2c(Cl)ccc(O)c2C(O)=C2C(=O)[C@]3(O)C(O)=C(C(N)=O)C(=O)[C@@H](N(C)C)[C@@H]3[C@@H](O)[C@H]12", -1),
    ("O=C(O)c1cc(O)c2c(c1)[O][Bi][O]2", -1),
    ("CCCCCCCCCCCCCC[n+]1ccc(C)cc1", 1),
    ("CCCCCCCCCCCCCCCC(=O)O[C@@H]1[C@@H](O)[C@@H](O)[C@@H]([C@H](NC(=O)[C@@H]2C[C@@H](CCC)CN2C)[C@H](C)Cl)O[C@@H]1SC", -1),
]
